- tgt: Bcat-Halo (UniProt P35222)
- Sequence (P35222 whole entry): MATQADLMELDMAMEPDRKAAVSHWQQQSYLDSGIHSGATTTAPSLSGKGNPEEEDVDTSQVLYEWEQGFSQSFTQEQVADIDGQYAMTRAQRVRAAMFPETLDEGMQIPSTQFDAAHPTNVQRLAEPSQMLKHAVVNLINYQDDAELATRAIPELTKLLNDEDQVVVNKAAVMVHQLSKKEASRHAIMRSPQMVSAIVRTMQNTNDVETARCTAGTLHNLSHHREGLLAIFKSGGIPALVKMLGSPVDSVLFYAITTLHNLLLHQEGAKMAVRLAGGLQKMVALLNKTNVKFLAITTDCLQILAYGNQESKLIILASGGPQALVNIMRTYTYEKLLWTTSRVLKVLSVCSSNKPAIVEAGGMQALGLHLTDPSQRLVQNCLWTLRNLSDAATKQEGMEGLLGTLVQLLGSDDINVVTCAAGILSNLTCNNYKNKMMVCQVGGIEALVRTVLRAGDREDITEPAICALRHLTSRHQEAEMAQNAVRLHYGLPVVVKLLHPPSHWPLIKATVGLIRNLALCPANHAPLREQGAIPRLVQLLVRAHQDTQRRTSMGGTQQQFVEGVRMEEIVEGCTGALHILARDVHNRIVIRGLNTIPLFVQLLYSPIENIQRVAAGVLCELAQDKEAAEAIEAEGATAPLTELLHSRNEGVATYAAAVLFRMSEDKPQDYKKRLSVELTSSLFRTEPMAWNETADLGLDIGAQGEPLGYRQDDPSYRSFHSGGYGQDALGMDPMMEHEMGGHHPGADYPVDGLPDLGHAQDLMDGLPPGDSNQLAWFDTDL
- assayDetails: NanoBRET Abs IC50, HEK293 cells, Bcat-Halo / TCF4-Luc
Starred links: 1 amine or outer side, 2 acyl side, 3 side chain; linkers in the order of their positions; H or OH if unused. Positions of bridges follow the written chain, without caps; N, C: chain ends. Non-standard residues stand in square brackets, D forms with d. Primed or numbered codes have the meaning given here. PyrS2″ = (S)-3-amino-1-((pent-4-en-1-yloxy)carbonyl)pyrrolidine-3-carboxylic acid (stapling residue), C=CCCCOC(=O)N1CC[C@@](N[*:1])(C(=O)[*:2])C1; B5(4) = 2,2-bis(4-pentenyl)glycine = 2-amino-2-(pent-4-en-1-yl)hept-6-enoic acid (stitching residue), C=CCCCC(CCCC=C)(N[*:1])C(=O)[*:2]; Phe(3-COOH) = N[C@@H](Cc1cccc(C(=O)O)c1)C(=O)O; Phe(3-Br) = N[C@@H](Cc1cccc(Br)c1)C(=O)O; αAllylPro = C=CC[C@@]1(C(=O)O)CCCN1; tBuAla = CC(C)(C)C[C@H](N)C(=O)O; 3Thi = N[C@@H](Cc1ccsc1)C(=O)O
attributeMeasured: IC50 (µM)
Give bare numbers, in µM.

Prompt: Would you kindly share the measured IC50 for Ac-[αAllylPro]D[tBuAla][B5(4)]D[Phe(3-COOH)]AAFL[PyrS2″][3Thi][Phe(3-Br)]Q-NH2 (staple 1-4, 4-11) [I-2307] ?
Completion: 8.9

From: patent US20240116985A1
